The measurements presented in this section are drawn from a collection of fitness landscapes (doi:10.1126/science.1257360).

B1: PhoQ; a variant is named by its letters at X, in order, P23837 (parent)
chain: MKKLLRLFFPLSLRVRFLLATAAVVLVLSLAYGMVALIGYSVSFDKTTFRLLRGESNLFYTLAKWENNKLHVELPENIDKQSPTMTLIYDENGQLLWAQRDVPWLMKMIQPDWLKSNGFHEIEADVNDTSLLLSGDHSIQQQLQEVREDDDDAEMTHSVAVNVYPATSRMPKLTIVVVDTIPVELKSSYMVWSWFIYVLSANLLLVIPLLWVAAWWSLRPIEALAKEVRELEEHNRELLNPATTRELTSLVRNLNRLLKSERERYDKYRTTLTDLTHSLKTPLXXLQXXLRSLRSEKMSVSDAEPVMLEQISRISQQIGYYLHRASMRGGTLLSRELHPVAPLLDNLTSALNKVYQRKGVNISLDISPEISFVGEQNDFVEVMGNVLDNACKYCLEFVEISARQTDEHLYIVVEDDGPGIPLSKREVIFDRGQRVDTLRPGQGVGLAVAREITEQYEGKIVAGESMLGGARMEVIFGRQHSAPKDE

Variants of: B1
Assay: enrichment ratio after two sorts for PhoP signalling (ratio (wild type AVST 3.29)); higher = more functional
Settings: with PhoP (E. coli)
Whole data set: some 140,000 sequences, median “enrichment ratio after two sorts for PhoP signalling” near 0, cut for the highest 2% near 11. The sample holds the highest values, similar sequences and a random draw of the others, so the mix is not that of the screen.
We begin with a simple list: items and their reported enrichment ratio.
RECORDED METRIC: enrichment ratio

> print(dat)
    mutation.annotation  measured.result
 1                 RGQG           ≤ 0.25
 2                 QECG               23
 3                 QRGI           ≤ 0.25
 4                 LGSN           ≤ 0.25
 5                 TGQG             15.7
 6                 EKVF           ≤ 0.25
 7                 GGQG           ≤ 0.25
 8                 PLQG           ≤ 0.25
 9                 NVQG           ≤ 0.25
10                 YHCL           ≤ 0.25
11                 LHHH           ≤ 0.25
12                 PVQG           ≤ 0.25
13                 NVMG           ≤ 0.25
